In this section, each of the compounds is paired with its reported photoluminescence quantum yield.
- Protocol: photoluminescence quantum yield (fraction); solvent given as SMILES
- Assay setup: in CCOC(C)=O

>  <Compound>
O=C1c2ccccc2-c2cccc(O)c21

>  <photoluminescence quantum yield>
0.0383

$$$$
>  <Compound>
c1ccc2cc(-n3c4ccccc4c4ccccc43)ccc2c1

>  <photoluminescence quantum yield>
0.46

$$$$
>  <Compound>
CCn1c2ccccc2c2cc(C#Cc3cc(C#Cc4ccc5c(c4)c4ccccc4n5CC)ncn3)ccc21

>  <photoluminescence quantum yield>
0.83

$$$$
>  <Compound>
CN(C)c1ccc(/C=C/c2ccccn2)cc1

>  <photoluminescence quantum yield>
0.03

$$$$
>  <Compound>
CCN(CC)c1ccc2c(c1)oc(=O)c1c(C)nc3c(cnn3-c3ccccc3)c12

>  <photoluminescence quantum yield>
0.685

$$$$
>  <Compound>
CCOC(=O)C(C(=O)OCC)C1=[N+]2C(=C(c3ccc(C)cc3)c3ccc(Cl)n3[B-]2(F)F)C=C1

>  <photoluminescence quantum yield>
0.4

$$$$
>  <Compound>
CC1=[N+]2C(=C(c3ccc(N(c4ccccc4)c4ccccc4)cc3)c3ccc(C)n3[B-]2(F)F)C=C1c1cc2n(c1)[B-](F)(F)[N+]1=CC=CC1=C2c1c(C)cc(C)cc1C

>  <photoluminescence quantum yield>
0.1

$$$$
>  <Compound>
NS(=O)(=O)c1ccc(N2N=C(c3ccc(O)cc3)CC2c2ccc(Cl)cc2)cc1 (centres undefined)

>  <photoluminescence quantum yield>
0.72

$$$$
>  <Compound>
Cc1ccc(N(c2ccc(C)cc2)c2ccc(-c3ccc4c(c3)C(=O)c3ccccc3C4=O)cc2)cc1

>  <photoluminescence quantum yield>
0

$$$$
